# ASSAY_EXPLANATION: log p (pH 2)
# Assay type: physicochemical
Let's look at some molecules and their measured logD.
REPORTED_METRIC: logD

[
  {
    "MOLECULE": "O=C(CNC(=O)c1ccccc1)OCCC(F)=C(F)F",
    "RESULT": 2.09
  },
  {
    "MOLECULE": "C[C@H](NC(=O)c1c(F)cccc1F)C(=O)OCCC(F)=C(F)F",
    "RESULT": 2.42
  },
  {
    "MOLECULE": "O=C(OCCC(F)=C(F)F)C1CCCN1C(=O)OCc1ccccc1 (stereo not shown)",
    "RESULT": 3.31
  },
  {
    "MOLECULE": "O=CNC1(C(=O)OCCC(F)=C(F)F)CC1",
    "RESULT": 1.32
  }
]
